The following molecules are shown together with reported pKi values.
biological target: KAT2A (Homo sapiens (Human), UniProt Q92830); assay: KAT2A acetyltransferase biochemical assay (RapidFire mass spectrometry, AcCoA to CoA); settings: read-out: KAT2A Ki at 1 μM AcCoA, 5 μM H3 1-21 peptide, 0.5 nM KAT2A, 90-minute reaction
Sequence (Q92830 whole entry): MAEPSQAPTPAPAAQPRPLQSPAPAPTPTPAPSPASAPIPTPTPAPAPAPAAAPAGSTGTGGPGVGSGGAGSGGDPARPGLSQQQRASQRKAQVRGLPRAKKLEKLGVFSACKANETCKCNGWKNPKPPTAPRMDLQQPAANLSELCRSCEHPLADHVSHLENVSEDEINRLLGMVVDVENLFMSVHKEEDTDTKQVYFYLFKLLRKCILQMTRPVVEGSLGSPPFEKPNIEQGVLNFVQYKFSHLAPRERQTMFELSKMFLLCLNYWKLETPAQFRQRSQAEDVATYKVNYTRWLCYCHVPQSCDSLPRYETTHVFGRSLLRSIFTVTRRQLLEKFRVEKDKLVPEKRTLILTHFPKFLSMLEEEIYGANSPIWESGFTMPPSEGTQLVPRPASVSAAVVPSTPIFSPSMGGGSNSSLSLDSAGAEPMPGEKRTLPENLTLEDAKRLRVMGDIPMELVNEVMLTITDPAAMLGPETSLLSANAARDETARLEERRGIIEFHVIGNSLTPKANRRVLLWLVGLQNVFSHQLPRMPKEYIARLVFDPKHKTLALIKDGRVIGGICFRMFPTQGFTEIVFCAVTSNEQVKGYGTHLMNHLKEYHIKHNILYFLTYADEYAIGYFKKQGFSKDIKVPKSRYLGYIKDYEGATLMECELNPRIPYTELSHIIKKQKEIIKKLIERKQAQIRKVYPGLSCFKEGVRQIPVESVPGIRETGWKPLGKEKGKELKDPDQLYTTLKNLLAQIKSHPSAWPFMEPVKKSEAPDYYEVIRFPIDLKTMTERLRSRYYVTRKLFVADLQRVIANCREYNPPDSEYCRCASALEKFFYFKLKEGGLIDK
In plain terms, pKi is the concentration in mol/L turned into minus its base-10 logarithm.

INSERT INTO measurements (molecule, assay_system, readout_type, endpoint_value) VALUES
  ('CC1(C)CNC[C@](F)(C(=O)N[C@@H]2CC[C@@H](Oc3ccc(CC(=O)O)cc3-c3cccc(F)c3C3CCC3)C2)C1 (single isomer, unassigned) [Example A23]', 'KAT2A (Homo sapiens (Human), UniProt Q92830)', 'pKi', 9.24);

IN: Requested read-out pKi, target or system KAT2A (Homo sapiens (Human), UniProt Q92830), entry CN1CC(C)(C)C[C@H]1C(=O)N[C@@H]1CC[C@@H](Oc2ccc(-c3nn(C)cc3CC(=O)O)cc2-c2cccc(F)c2C2CCC2)C1
OUT: 9.13

IN: Form field - read-out: pKi; system: KAT2A (Homo sapiens (Human), UniProt Q92830); submitted item: CC(C)c1ccccc1-c1cc(CC(=O)NS(=O)(=O)C2(C)CC2)ccc1O[C@@H]1CC[C@@H](NC(=O)[C@@]2(F)CNC3(CCC3)C2)C1
OUT: 10.40

IN: Field: pKi (KAT2A (Homo sapiens (Human), UniProt Q92830)). Entry: CC[C@](C)(C(=O)O)c1ccc(O[C@@H]2CC[C@@H](NC(=O)[C@]3(F)CNC4(CCC4)C3)C2)c(-c2cccc(F)c2C2CCC2)c1 (single isomer, unassigned) [Example A9]
OUT: 9.08

IN: // fetch KAT2A (Homo sapiens (Human), UniProt Q92830) pKi for CCc1c(F)cccc1-c1cc(C(=O)O)ccc1O[C@@H]1CC[C@@H](NC(=O)[C@@]2(F)CNC3(CCCC3)C2)C1 (single isomer, unassigned) [Example A42]
OUT: 9.39

IN: Please state recorded pKi (tested on KAT2A (Homo sapiens (Human), UniProt Q92830)) of CN(C)S(=O)(=O)NC(=O)Cc1cccc(O[C@@H]2CC[C@@H](NC(=O)[C@@]3(F)CNC4(CCC4)C3)C2)c1-c1cccc(F)c1C1CCC1 (atropisomer, axis not shown) [Example I17]
OUT: 10.70

IN: Notebook: pull reported pKi for KAT2A (Homo sapiens (Human), UniProt Q92830), entry CC1(C)CNC[C@](F)(C(=O)N[C@@H]2CC[C@@H](Oc3ccc(C(=O)O)cc3-c3cccc(F)c3C3CCC3)C2)C1 (single isomer, unassigned)
OUT: 10.70
